# Assay Protocol: binders of probe aFST on microarray, primary screen, stem cell growth factor project, biochemical, small-molecule microarray, fluorescence 635/667 (AID 1086);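 also: score merges 667 nm fluorescence with signal-to-noise of each printed compound spot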
# Experimental Parameters: higher = more signal
Respond with 1 (yes) for composite z-score values of 0.07 and above, 0 (no) for values below.

CO[C@H]1COC(=O)CC=C[C@@H](C)COC(=O)[C@@H](OCc2ccccc2)C=C[C@@H]1C | 0 (no)
COC(=O)[C@H](C)NC(=O)CCC1CC(OC(=O)NCCc2ccc(F)cc2)CC2(CCCC(COC(=O)NCCCN3CCCC3=O)O2)O1 (stereo not given in full) | 1 (yes)
CCOC(=O)CCN1C(=O)[C@H]2[C@H]3[C@H](O)[C@H](O)CC(=NNC(=O)OCC)[C@@H]3CC[C@H]2C1=O | 1 (yes)

Incoming: Check if composite z-score >= 0.07 (inclusive). Item: CC(=O)OC[C@H]1O[C@H](C#CC(C)(C)C)C=C[C@@H]1OC(C)=O
Outgoing: 1 (yes)

Incoming: Check if composite z-score >= 0.07 (inclusive). Item: CO[C@@H]1C=CCC(=O)N2CCC[C@H]2C(=O)OC[C@H](C)C(=O)OC[C@H]1C
Outgoing: 1 (yes)

Incoming: Check if composite z-score >= 0.07 (inclusive). Item: CC(C)=NO[C@@H](C)c1cc(-c2c(C)cc(C)cc2C)no1
Outgoing: 0 (no)

Incoming: Check if composite z-score >= 0.07 (inclusive). Item: Cc1cc2c(nc1C)CCCN2CC(C)ON=C[C@@H](C)[C@H](OCc1ccccc1)C(C)C (stereo not given in full)
Outgoing: 1 (yes)

Incoming: Check if composite z-score >= 0.07 (inclusive). Item: CCOC(=O)NN=C1C[C@@H](O)[C@@H](O)[C@@H]2[C@@H]3C(=O)N(Cc4ccc5c(c4)OCO5)C(=O)[C@@H]3CC[C@@H]12
Outgoing: 1 (yes)

* * *

I'd be grateful if you could share measured z-score for these entries.
# Assay Protocol: basal 3T3-L1 adipocyte mitochondrial potential changes, profiling panel, cell-based, JC-1 fluorescence, 3T3-L1 adipocytes, 24 h, 100 nL compound (AID 1168); also: test concentration not given here
# Experimental Parameters: JC-1 mitochondrial fluorescence, higher = more signal, called active from +8 up or from −8 down
One number for each entry.

CC(C)=NOC[C@@H](O)COCc1ccco1 | 0.121

For each of the compounds below, state z-score.
1. Cc1cc2c(nc1C)CCCN2CC(C)ON=C[C@@H](C)[C@H](OCc1ccccc1)C(C)C (stereo partly drawn)
2. C[C@@H](c1ccccc1)N1C(=O)[C@H]2[C@H]3[C@H](O)[C@H](O)CC(=O)[C@@H]3CC[C@H]2C1=O
3. CCN1C(=O)[C@H]2[C@H]3[C@H](O)[C@H](O)CC(=NNC(=O)OCc4ccc(OC)cc4)[C@H]3CC[C@H]2C1=O
4. Cc1ccc(S(=O)(=O)N[C@H]2COC(=O)[C@@H](C)COC(=O)[C@H](C)NC(=O)CC=C[C@H]2C)cc1

Outgoing:
[-0.827, 2.42, -0.596, 0.198]

For each of the compounds below, state z-score.
1. CCOC(=O)[C@H](CC(C)C)NC(=O)CCC1CC(OC(=O)NCc2cccc3ccccc23)CC2(CCCC(COC(=O)NCc3ccccc3)O2)O1 (stereo partly drawn)
2. CC(C)CCN1CCc2nc(-c3ccccc3)c3c(c2C1)CO[C@@H](C)C3
3. CC(C)=CCCC(C)=CCON=C1C[C@@H](O)[C@@H](O)[C@@H]2[C@@H]3C(=O)N([C@@H](C)c4ccccc4)C(=O)[C@@H]3CC[C@H]12

Outgoing:
0.472
-0.395
1.08

* * *

# System: Sonic hedgehog protein (Shh)
# Assay Protocol: small-molecule binders of Shh protein, primary screen, biochemical, small-molecule microarray, 635/667 nm fluorescence (AID 1151);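 also: Shh protein binding to compounds spotted on small-molecule microarray slides; score combines spot fluorescence intensity with signal-to-noise across triplicate slides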
# Experimental Parameters: small-molecule microarray binding, 635 nm fluorescence; higher = more signal
Respond with yes (1) for composite z-score values of 0.4 and above, no (0) for values below.

O=C(NN=C1C[C@@H](O)[C@@H](O)[C@@H]2[C@@H]3C(=O)N(Cc4ccc5c(c4)OCO5)C(=O)[C@@H]3CC[C@H]12)OCc1ccccc1 | no (0)
COc1ccc(COC(=O)NN=C2C[C@@H](O)[C@@H](O)[C@@H]3[C@@H]4C(=O)N(C(C)(C)C)C(=O)[C@@H]4CC[C@H]23)cc1 | no (0)
C[C@@H](c1ccccc1)N1C(=O)[C@H]2[C@H]3[C@H](O)[C@H](O)CC(=O)[C@@H]3CC[C@H]2C1=O | yes (1)
CCOC(=O)[C@H](CC(C)C)NC(=O)CCC1CC(OC(=O)NCc2cccc3ccccc23)CC2(CCCC(COC(=O)NCc3ccccc3)O2)O1 (some centres not stated) | no (0)
CO[C@H]1COC(=O)[C@H](C)NC(=O)CC=C[C@@H](C)[C@H](OC)COC(=O)CC=C[C@@H]1C | yes (1)
CC(C)=NO[C@@H](C)c1cc(-c2c(C)cc(C)cc2C)no1 | no (0)

Incoming: Check if composite z-score >= 0.4 (inclusive). Item: CCN1C(=O)[C@H]2[C@H]3[C@H](O)[C@H](O)CC(=NOC)[C@@H]3CC[C@H]2C1=O
Outgoing: no (0)

Incoming: Check if composite z-score >= 0.4 (inclusive). Item: CCOC(=O)NN=C1C[C@@H](O)[C@@H](O)[C@@H]2[C@@H]3C(=O)N(Cc4ccccc4)C(=O)[C@@H]3CC[C@@H]12
Outgoing: yes (1)

Incoming: Check if composite z-score >= 0.4 (inclusive). Item: CCN1C(=O)[C@H]2[C@H]3[C@H](O)[C@H](O)CC(=NNC(=O)OCc4ccc(OC)cc4)[C@H]3CC[C@H]2C1=O
Outgoing: no (0)

Incoming: Check if composite z-score >= 0.4 (inclusive). Item: CC(C)CON=C1C[C@@H](O)[C@@H](O)[C@@H]2[C@@H]3C(=O)N(c4cccc(Oc5ccccc5)c4)C(=O)[C@@H]3CC[C@H]12
Outgoing: yes (1)

Incoming: Check if composite z-score >= 0.4 (inclusive). Item: CC(=O)OC[C@H]1O[C@H](C#CC(C)(C)C)C=C[C@@H]1OC(C)=O
Outgoing: yes (1)

Incoming: Check if composite z-score >= 0.4 (inclusive). Item: CCOC(=O)CCN1C(=O)[C@H]2[C@H]3[C@H](O)[C@H](O)CC(=NNC(=O)OCC)[C@@H]3CC[C@H]2C1=O
Outgoing: no (0)

Incoming: Check if composite z-score >= 0.4 (inclusive). Item: CC(C)=NOCc1ccc(-c2cn([C@@H]3COC[C@H]3O)nn2)cc1
Outgoing: no (0)

* * *

# System: wheat germ agglutinin (Triticum aestivum), Alexa647-labelled
# Assay Protocol: wheat germ agglutinin binders on compound microarrays, profiling panel, artefact control for SMM control-protein annotation, biochemical, small-molecule microarray, 635/667 nm fluorescence (AID 1140);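 also: score merges 667 nm feature emission with signal to noise over triplicate slides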
# Experimental Parameters: WGA-A647 binding, 635 nm fluorescence, higher = more signal
I'd be grateful if you could share measured composite z-score for these entries.
One number for each entry.

Worked set:
COc1ccc(COC(=O)NN=C2C[C@@H](O)[C@@H](O)[C@@H]3[C@@H]4C(=O)N(C(C)(C)C)C(=O)[C@@H]4CC[C@H]23)cc1 | 0.0873
CCOC(=O)[C@H](Cc1ccccc1)NC(=O)CCC1CC(OC(=O)NCc2cccc3ccccc23)CC2(CCCC(COC(=O)NCCCN3CCCC3=O)O2)O1 (some centres not stated) | 0.0826
CC(=O)OC[C@H]1O[C@H](C#CC(C)(C)C)C=C[C@@H]1OC(C)=O | 0.445
COC(=O)[C@H](C)NC(=O)CCC1CC(OC(=O)NCCc2ccc(F)cc2)CC2(CCCC(COC(=O)NCCCN3CCCC3=O)O2)O1 (some centres not stated) | 0.526
C=C(C)C(=O)OC[C@@H]1CN2[C@@H](CC[C@@H](C)[C@@H]2c2ccc(Br)cc2)C(=O)O1 | 0.146

For each of the compounds below, state composite z-score.
1. CCOC(=O)[C@H](CC(C)C)NC(=O)CCC1CC(OC(=O)NCc2cccc3ccccc23)CC2(CCCC(COC(=O)NCc3ccccc3)O2)O1 (some centres not stated)
2. CO[C@@H]1COC(=O)CC=C[C@H](C)COC(=O)[C@H](C)NC(=O)CC=C[C@H]1C

Outgoing:
1. -0.0551
2. -0.587

* * *

# Assay Protocol: binders of probe aFST on microarray, primary screen, stem cell growth factor project, biochemical, small-molecule microarray, fluorescence 635/667 (AID 1086);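 also: score merges 667 nm fluorescence with signal-to-noise of each printed compound spot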
# Experimental Parameters: higher = more signal
I'd be grateful if you could share measured composite z-score for these entries.
One number for each entry.

O=C(NN=C1C[C@@H](O)[C@@H](O)[C@@H]2[C@@H]3C(=O)N(Cc4ccc5c(c4)OCO5)C(=O)[C@@H]3CC[C@H]12)OCc1ccccc1 | 0.965

For each of the molecules below, state composite z-score.
1. CC(C)CCN1CCc2nc(-c3ccccc3)c3c(c2C1)CO[C@@H](C)C3
2. Cc1ccc(S(=O)(=O)N[C@H]2COC(=O)[C@@H](C)COC(=O)[C@H](C)NC(=O)CC=C[C@H]2C)cc1
3. C#CCCCON=C1C[C@@H](O)[C@@H](O)[C@@H]2[C@@H]3C(=O)N(C4CCCCC4)C(=O)[C@@H]3CC[C@H]12
4. CC(C)=NOCc1ccc(-c2cn([C@@H]3COC[C@H]3O)nn2)cc1

Outgoing:
[0.57, -0.154, 0.346, 0.169]
